target: cGMP-specific 3',5'-cyclic phosphodiesterase (Homo sapiens); test: Inhibitory activity against phosphodiesterase 5 (PDE5) obtained from human corpus cavernosum tissue
pIC50: −log10 of the molar value.
MEASURED_ENDPOINT: pIC50

COMPOUND | OBSERVED_VALUE
COc1cccc([C@@H]2c3[nH]c4ccccc4c3C[C@@H]3C(=O)N([C@@H]4CCN(Cc5ccccc5)C4)CC(=O)N23)c1 (stereo in doubt; form 1) | 7.54
O=C1[C@H]2Cc3c([nH]c4ccccc34)[C@@H](c3ccc(O)nc3)N2C(=O)CN1[C@@H]1CCN(Cc2ccccc2)C1 | 6.90
O=C1[C@H]2Cc3c([nH]c4ccccc34)[C@@H](c3ccc4c(c3)OCO4)N2C(=O)CN1[C@@H]1CCN(CCc2ncc[nH]2)C1 | 8.92

meta.source: ChEMBL document CHEMBL1136701
